Biological target: Acetylcholinesterase (Bos taurus)
Sequence (P23795 whole entry): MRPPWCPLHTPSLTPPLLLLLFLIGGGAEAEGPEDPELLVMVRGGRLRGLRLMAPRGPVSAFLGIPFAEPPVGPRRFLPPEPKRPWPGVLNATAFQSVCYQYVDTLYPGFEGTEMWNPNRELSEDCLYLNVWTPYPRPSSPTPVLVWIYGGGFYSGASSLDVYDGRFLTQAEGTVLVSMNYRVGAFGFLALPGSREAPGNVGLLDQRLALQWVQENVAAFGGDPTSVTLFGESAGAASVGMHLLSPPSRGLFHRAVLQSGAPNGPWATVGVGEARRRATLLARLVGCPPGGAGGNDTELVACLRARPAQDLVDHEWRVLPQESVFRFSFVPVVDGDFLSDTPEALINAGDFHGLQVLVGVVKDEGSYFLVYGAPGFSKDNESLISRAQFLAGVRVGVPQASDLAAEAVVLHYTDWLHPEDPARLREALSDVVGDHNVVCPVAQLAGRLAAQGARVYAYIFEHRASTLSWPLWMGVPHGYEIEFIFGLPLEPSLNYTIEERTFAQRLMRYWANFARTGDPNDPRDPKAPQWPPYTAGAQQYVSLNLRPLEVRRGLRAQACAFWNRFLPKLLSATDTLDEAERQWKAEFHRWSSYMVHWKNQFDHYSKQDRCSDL
parameterMeasured: pIC50
Answers are plain numbers, as −log10 of the molar value.

Here's what some known entries look like.
> print(dat)
                                   compound  parametermeasured  datavalue
1  CC1=CC2Cc3nc4cc(Cl)ccc4c(N)c3C(C1)C2 (racemic; (-)) [HUPRINE Y]              pIC50       8.52
2  CCC1=CC2Cc3nc4cc(Cl)ccc4c(N)c3[C@@H](C1)C2 (mixture of isomers; (-)) [HUPRINE X]              pIC50       8.64
3  CCC1=CC2Cc3nc4cc(Cl)ccc4c(N)c3[C@@H](C1)C2 (mixture of isomers; (+)) [HUPRINE X]              pIC50       6.62

Parameter requested: pIC50. Apply to each item below.
1. CC1=CC2Cc3nc4cc(Cl)ccc4c(N)c3C(C1)C2 (stereo in doubt) [HUPRINE Y]
2. CCC1=CC2Cc3nc4cc(Cl)ccc4c(N)c3[C@@H](C1)C2 (stereo in doubt) [HUPRINE X]

1. 8.51
2. 8.48
